Where these numbers come from: PubChem BioAssay

test: human hepatoma cell viability loss – ATP luminescence, cytotoxicity control for P. falciparum antimalarial project, primary screen (AID 2303); details: HepG2 viability, 24-48 h, at 10 µM, hits give high values;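 note: 0% = DMSO wells and 100% = digitonin-killed cells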
Recorded inhibition for the following compounds
Give your result in % as a bare value.

{"columns": ["compound", "inhibition, %"],
 "data": [
  ["CC(=O)Nc1ccc(CN2CCC(NC(=O)c3ccc(-c4cccc(C(F)(F)F)c4)s3)CC2)cc1", 35],
  ["CN(C(=O)C1(c2ccc(Cl)cc2)CC1)C1CCN(CCCCCNC(=O)/C=C/c2ccc(Cl)c(Cl)c2)CC1", 91],
  ["COc1ccc(CNc2ccnc(-n3cnc4cc(C)c(C)cc43)n2)cc1Cl", 6],
  ["CCNc1cc(C(=O)N[C@@H](Cc2ccccc2)[C@H](O)CNC(C)(C)CCCC(C)C)cc(N2CCCC2=O)c1", -12],
  ["O=C(NCC1CCC(CNCCCc2ccccc2)CC1)Nc1ccc(Cl)c(Cl)c1 (centres undefined)", 26]
]}

Lab note: measured inhibition of Cc1ccc(NC(=O)c2cc([N+](=O)[O-])ccc2NCc2cccnc2)cc1Cl was 9

Reported inhibition for O=C(Nc1ccccc1)N1CCC(CN2CCOC(c3ccccc3)(c3ccccc3)C2)CC1 was 10

Short answer for N=c1n(Cc2ccccc2)c2ccccc2n1CC(O)c1ccc(Cl)cc1 (centres undefined) : inhibition was 26

Per the records, this compound ( Cc1ccc(CNC(=O)c2ccc(CN3CCCN(Cc4ccsc4)CC3)cc2)cc1 ) has inhibition equal to 16
